assay_system: recombinant KPC-2 (Klebsiella pneumoniae)
Construct: made in house; host or cells: E. coli BL21 (DE3)
Sequence (Q9F663 25-293, looked up): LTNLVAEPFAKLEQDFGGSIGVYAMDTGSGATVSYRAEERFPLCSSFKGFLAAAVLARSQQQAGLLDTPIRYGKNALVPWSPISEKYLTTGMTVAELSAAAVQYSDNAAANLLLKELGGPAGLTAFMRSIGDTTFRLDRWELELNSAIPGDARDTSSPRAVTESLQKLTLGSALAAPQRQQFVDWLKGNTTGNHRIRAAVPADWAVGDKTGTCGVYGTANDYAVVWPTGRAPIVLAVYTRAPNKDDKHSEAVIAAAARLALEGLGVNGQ
assay_procedure: KPC-2 inhibition assay, CENTA as reporter substrate
Format: biochemical
experimental_parameters: Cheng-Prusoff equation from IC50, assuming competitive inhibition; read-out: Ki (calculated)
readout_name: pKi
pKi here is simply -log10 of the concentration when that concentration is written in mol/L.

Qu. Could you tell me which pKi is on file for O=C(Nc1cccc(-c2nnn[nH]2)c1)c1cccc(F)c1 [11a] ?
Ans. 4.83

###

assay_system: recombinant KPC-2 (Klebsiella pneumoniae)
Construct: made in house; host or cells: E. coli BL21 (DE3)
assay_procedure: KPC-2 inhibition assay, nitrocefin as reporter substrate
Assay type: biochemical
experimental_parameters: read-out: percent inhibition at the highest tested concentration
Form field: inhibition at 200 µM (one value per entry).

See these solved cases before continuing.
>  <smiles_input>
O=S(=O)(Nc1cccc(-c2nnn[nH]2)c1)c1ccc(Cl)cc1

>  <assay_system>
recombinant KPC-2 (Klebsiella pneumoniae)

>  <inhibition at 200 µM>
< 10%

$$$$
>  <smiles_input>
O=S(=O)(Nc1cccc(-c2nnn[nH]2)c1)c1cccc(F)c1

>  <assay_system>
recombinant KPC-2 (Klebsiella pneumoniae)

>  <inhibition at 200 µM>
25%

$$$$
>  <smiles_input>
CC(=O)Nc1ccc(S(=O)(=O)Nc2cccc(-c3nnn[nH]3)c2)cc1

>  <assay_system>
recombinant KPC-2 (Klebsiella pneumoniae)

>  <inhibition at 200 µM>
16%

$$$$

Please examine the following record next.
Qu. Give the measured inhibition at 200 µM of `O=S(=O)(Nc1cccc(-c2nnn[nH]2)c1)c1cccc2cccnc12` .
Ans. 13%

###

Item-by-item account of inhibition at 500 µM
assay_system: recombinant KPC-2 (Klebsiella pneumoniae)
Construct: made in house; host or cells: E. coli BL21 (DE3)
assay_procedure: KPC-2 inhibition assay, CENTA as reporter substrate
Format: biochemical
experimental_parameters: read-out: percent inhibition at the highest tested concentration
Procedure: The blaKPC-2 gene was kindly provided by Prof. Sergei Vakulenko (University of Notre Dame du Lac, Indiana, USA) and cloned as already reported and transformed into competent E.coli BL21 (DE3) cells for protein expression. […] 4 mL of the overnight culture was used to inoculate 1.3 L of TSB (50 mg/L kanamycin) grown at 37°C with shaking to an optical density of 0.5 measured at 600 nm. […] Competitive inhibition mechanism and the Ki for compound 9a was determined by Lineweaver–Burk (LB) and Dixon plots.
Value expressed in %; do not type the unit.

In the examples that follow, each entry is paired with its recorded inhibition at 500 µM.
>  <compound>
CC(=O)Nc1cccc(-c2nnn[nH]2)c1

>  <uom>
%

>  <inhibition at 500 µM>
37

$$$$
>  <compound>
COc1ccc(-c2cn[nH]c2C(=O)O)c(OC)c1

>  <uom>
%

>  <inhibition at 500 µM>
38

$$$$
>  <compound>
CCOc1cc(C(=O)O)nc2ccc(OC)cc12 [20a]

>  <uom>
%

>  <inhibition at 500 µM>
28

$$$$
>  <compound>
COc1ccc(NS(C)(=O)=O)cc1

>  <uom>
%

>  <inhibition at 500 µM>
13

$$$$

Turning now to a further compound:
Qu. GET /values?readout=inhibition at 500 µM&item= COc1cc(OC)c2cc(C(=O)O)nnc2c1 [28a]
Ans. 14
